- Target Entity: T1, human CD20 (human, UniProt P11836 1-297)
- T1 sequence: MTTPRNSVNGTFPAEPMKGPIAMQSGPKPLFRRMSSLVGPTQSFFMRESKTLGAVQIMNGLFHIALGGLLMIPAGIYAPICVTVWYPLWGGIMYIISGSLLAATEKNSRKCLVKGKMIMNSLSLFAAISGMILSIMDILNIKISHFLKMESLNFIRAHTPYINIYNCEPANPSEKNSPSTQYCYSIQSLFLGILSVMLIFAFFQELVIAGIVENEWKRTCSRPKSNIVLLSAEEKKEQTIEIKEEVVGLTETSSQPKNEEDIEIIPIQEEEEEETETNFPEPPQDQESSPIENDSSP
- Measurement Notes: cell-based or functional assay
For each record, write down the corresponding % Cytotoxicity (CDC, Daudi), 1 hour.
Param answer (str): number followed by unit.

Binder	Readout Label	Value Measured
3B9-10 (antibody, V domains shown, Fully human IgG, constant region not specified; also called 3B9-10N) VH: EVQLVESGGGLVQPGRSLRLSCVASGFTFNDYAMHWVRQAPGKGLEWVSVISWNSDSIGYADSVKGRFTISRDNAKNSLYLQMHSLRAEDTALYYCAKDNHYGSGSYYYYQYGMDVWGQGTTVTVSS VL: EIVMTQSPATLSVSPGERATLSCRASQSVSSNLAWYQQKPGQAPRLLIYGTSTRATGIPARFSGSGSGTEFTLTISSLQSEDFAVYYCQQYNNWPLTFGGGTKVEIK	% Cytotoxicity (CDC, Daudi), 1 hour	97.9%
9H4-12 (antibody, V domains shown, Fully human IgG, constant region not specified; also called 9H4-12N) VH: EVQLVESGGGLVQPGRSLRLSCAASGFTFDDYAMHWVRQVPGKGLEWVSGISWNSGSIGYADSVKGRFTISRDNAKNSLYLQMNSLRAEDTALYYCAKDMGYGNYYHYGMDVWGQGTTVTVSS VL: DIVLTQSPATLSLSPGERATLSCRASQSVSSYLAWYQQKPGQAPRLLICDASHRATRIPARFSGSGSGTDFTLTISSLEPEDFAVYYCQQRSNWPITFGQGTRLEIK	% Cytotoxicity (CDC, Daudi), 1 hour	17.4%
2C11-4 (antibody, V domains shown, Fully human IgG, constant region not specified; also called 2C11-4N) VH: EVQLVESGGGLVQPGRSLRLSCAASGFTFRDYAMHWVRQGPGKGLEWVSGISWNTDYIGYADSVKGRFTISRDNAKNSLYLQMNSLRPEDTALYYCAKDARYGRDNYYGMDVWGQGTTVTVSS VL: EIVLTQSPATLSLSPGERATLSCRASQSVSRYLAWYQQKPGQAPRLLIHDASNRATGIPARFSGSGSGTDFTLTITSLEPEDFVVYYCQQRSDWPITFGQGTRLEIK	% Cytotoxicity (CDC, Daudi), 1 hour	14%

Read the next record carefully.
In: Entry under review: rituximab (RITUXAN, IDEC Pharmaceuticals Corp.) (antibody, V domains shown) VH: QVQLQQPGAELVKPGASVKMSCKASGYTFTSYNMHWVKQTPGRGLEWIGAIYPGNGDTSYNQKFKGKATLTADKSSSTAYMQLSSLTSEDSAVYYCARSTYYGGDWYFNVWGAGTTVTVSA VL: QIVLSQSPAILSASPGEKVTMTCRASSSVSYIHWFQQKPGSSPKPWIYATSNLASGVPVRFSGSGSGTSYSLTISRVEAEDAATYYCQQWTSNPPTFGGGTKLEIK . Reported % Cytotoxicity (CDC, Daudi), 1 hour?
Out: 81.1%
